Experiment: in vitro
Design: dose or concentration left out as unconfirmed
Condition: human, liver microsomes
Description: Intrinsic clearance in human liver microsomes at 10 mM preincubated for 10 mins followed by NADPH addition and measured after 5 to 60 mins by LC-MS analysis
Endpoint name: microsomal CLint (µL/min/mg)

>>> recorded_value("O=C(O)Cc1ccccc1Nc1c(Cl)cccc1Cl [DICLOFENAC]")
136
>>> recorded_value("C[C@]12CC[C@H]3[C@@H](CCC4=CC(=O)CC[C@@]43C)[C@@H]1CC[C@@H]2O [TESTOSTERONE]")
82.2

###

List of inhibition values.
Tgt: RAC-alpha serine/threonine-protein kinase (Homo sapiens, UniProt P31749)
Sequence (P31749 whole entry): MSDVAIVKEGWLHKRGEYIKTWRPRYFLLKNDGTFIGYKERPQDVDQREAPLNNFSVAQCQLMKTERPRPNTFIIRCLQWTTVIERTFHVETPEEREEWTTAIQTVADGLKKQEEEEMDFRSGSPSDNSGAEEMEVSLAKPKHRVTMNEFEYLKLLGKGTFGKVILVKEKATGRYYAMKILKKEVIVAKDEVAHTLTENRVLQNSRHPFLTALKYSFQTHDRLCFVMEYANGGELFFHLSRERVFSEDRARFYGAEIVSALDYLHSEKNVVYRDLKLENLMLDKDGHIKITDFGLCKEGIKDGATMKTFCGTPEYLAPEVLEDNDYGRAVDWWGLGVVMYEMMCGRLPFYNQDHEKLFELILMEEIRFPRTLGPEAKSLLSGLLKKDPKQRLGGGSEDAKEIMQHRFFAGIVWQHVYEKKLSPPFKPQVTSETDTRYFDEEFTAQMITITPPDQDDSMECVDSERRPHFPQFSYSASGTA
Experiment: Inhibition of AKT1 (unknown origin) at 0.1 uM using biotin-labelled STK as substrate measured after 45 mins by HTRF method relative to control
Endpoint name: inhibition

>>> recorded_value("O=C(N1CCN(c2ncnc3[nH]nc(Br)c23)CC1)C1(c2ccc(Br)cc2)CCNCC1")
"90.6%"
>>> recorded_value("O=C(N1CCN(c2ncnc3[nH]nc(Br)c23)CC1)C1(c2ccc(Cl)cc2)CCNCC1")
"86.7%"
>>> recorded_value("O=C(N1CCN(c2ncnc3[nH]nc(Br)c23)CC1)C1(c2ccc(Cl)c(Cl)c2)CCNCC1")
"90.9%"
>>> recorded_value("O=C(N1CCN(c2ncnc3[nH]nc(Cl)c23)CC1)C1(c2ccc(Cl)cc2)CCNCC1")
"83.4%"

###

Tgt: RAC-alpha serine/threonine-protein kinase (Homo sapiens)
pIC50: −log10 of the molar value.
List of pIC50 values.
Endpoint name: pIC50

>>> recorded_value("O=C(N1CCN(c2ncnc3[nH]nc(Cl)c23)CC1)C1(c2ccc(Cl)c(Cl)c2)CCNCC1")
7.61
>>> recorded_value("O=C(N1CCN(c2ncnc3[nH]nc(Br)c23)CC1)C1(c2ccc(Br)cc2)CCNCC1")
7.28
>>> recorded_value("O=C(N1CCN(c2ncnc3[nH]nc(Cl)c23)CC1)C1(c2ccc(Cl)cc2)CCNCC1")
7.18
>>> recorded_value("O=C(N1CCN(c2ncnc3[nH]nc(Br)c23)CC1)C1(c2ccc(Cl)cc2)CCNCC1")
7.57
>>> recorded_value("O=C(N1CCN(c2ncnc3[nH]nc(Br)c23)CC1)C1(c2ccc(Cl)c(Cl)c2)CCNCC1")
7.52
>>> recorded_value("O=C(N1CCN(c2ncnc3[nH]nc(Cl)c23)CC1)C1(c2ccc(Br)cc2)CCNCC1")
7.48

###

Experiment: in vitro
Set-up: dose or concentration left out as unconfirmed
Condition: human, liver microsomes
Description: Half life in human liver microsomes at 10 mM preincubated for 10 mins followed by NADPH addition by LC-MS analysis
Endpoint name: half-life (min)

>>> recorded_value("C[C@]12CC[C@H]3[C@@H](CCC4=CC(=O)CC[C@@]43C)[C@@H]1CC[C@@H]2O")
16.9
>>> recorded_value("O=C(O)Cc1ccccc1Nc1c(Cl)cccc1Cl")
10.2

###

Tgt: RAC-alpha serine/threonine-protein kinase (Homo sapiens)
Experiment: Inhibition of AKT1 (unknown origin) at 0.1 uM using biotin-labelled STK as substrate measured after 45 mins by HTRF method relative to control
# inhibition >= 80% gives t, anything below gives f

>>> label_value("O=C(N1CCN(c2ncnc3[nH]nc(Cl)c23)CC1)C1(c2ccc(Cl)c(Cl)c2)CCNCC1")
"t"
>>> label_value("CCn1c(-c2nonc2N)nc2c(C#CC(C)(C)O)ncc(OC[C@H]3CCCNC3)c21")
"t"
>>> label_value("O=C(N1CCN(c2ncnc3[nH]nc(Cl)c23)CC1)C1(c2ccc(F)cc2)CCNCC1")
"f"
>>> label_value("O=C(N1CCN(c2ncnc3[nH]nc(Br)c23)CC1)C1(c2ccc(F)cc2)CCNCC1")
"f"
>>> label_value("O=C(N1CCN(c2ncnc3[nH]nc(Cl)c23)CC1)C1(c2ccc(Br)cc2)CCNCC1")
"t"
